Test system: mouse plasma stability, percent remaining
Assay: qHTS Assay for Inhibitors of Bacillus subtilis Sfp phosphopantetheinyl transferase (PPTase): Mouse Plasma Stability
Settings: stronger effect = higher value
recordedMetric: percent remaining (%)
Numbers only, in %.

Query: Fill in: percent remaining of COc1ccnc(NC(=S)N2CCN(c3ncc(C(F)(F)F)cc3Cl)CC2)c1 is ___
Reply: 100
